Target: SIRP-α mouse NOD (mouse (NOD)) (UniProt P97797)
Test: SPR, antibody on GLC chip, SIRP as analyte
experimental-readout: Kd (nM)
Use nM as the unit, but write only the number.

| binder | experimental-readout | reported-result |
| --- | --- | --- |
| Anti-SIRP-α antibody 136, light chain Mut, heavy chain Mut (antibody, V domains shown) VH: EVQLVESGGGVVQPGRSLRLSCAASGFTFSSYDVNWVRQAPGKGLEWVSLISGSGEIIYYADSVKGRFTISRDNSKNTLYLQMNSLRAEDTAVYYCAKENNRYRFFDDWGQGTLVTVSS VL: EIVLTQSPGTLSLSPGERATLSCRASQSVYTYLAWYQQKPGQAPRLLIYGASSRATGIPDRFSGSGSGTEFTLTISSLQSEDFAVYYCQQYYDRPPLTFGGGTKVEIK | Kd | 5.2 |

Please examine the following record next.
Input: I have this binder here, Anti-SIRP-α antibody 136, light chain Mut_I2T, heavy chain Mut (antibody, V domains shown) VH: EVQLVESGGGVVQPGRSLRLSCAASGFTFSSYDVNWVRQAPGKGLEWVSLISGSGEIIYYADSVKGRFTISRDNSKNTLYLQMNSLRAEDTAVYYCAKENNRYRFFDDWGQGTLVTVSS VL: ETVLTQSPGTLSLSPGERATLSCRASQSVYTYLAWYQQKPGQAPRLLIYGASSRATGIPDRFSGSGSGTEFTLTISSLQSEDFAVYYCQQYYDRPPLTFGGGTKVEIK , and I need its recorded Kd.
Output: 0.68
